Origin of values: patent US20230134571A1

Please go through the items and note down their IC50 (µg/ml) with constrains.
- system.tested: HIV Env of isolate ZM53M.PB12 (clade C) (HIV)
- assay.details: cell-based or functional assay
Give bare numbers, in µg/mL.

Sample answers from the record:
binder: ePGDM5 (antibody, V domains shown) VH: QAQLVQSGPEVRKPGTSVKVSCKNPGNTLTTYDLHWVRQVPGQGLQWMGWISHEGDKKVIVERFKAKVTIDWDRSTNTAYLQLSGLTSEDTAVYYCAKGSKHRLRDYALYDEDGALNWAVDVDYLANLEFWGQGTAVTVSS VL: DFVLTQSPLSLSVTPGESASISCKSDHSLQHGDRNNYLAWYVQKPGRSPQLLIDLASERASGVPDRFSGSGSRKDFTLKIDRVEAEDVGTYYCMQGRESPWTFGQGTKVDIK
IC50 (µg/ml) with constrains (µg/mL): 0.005
//
binder: ePGDM13 (antibody, V domains shown) VH: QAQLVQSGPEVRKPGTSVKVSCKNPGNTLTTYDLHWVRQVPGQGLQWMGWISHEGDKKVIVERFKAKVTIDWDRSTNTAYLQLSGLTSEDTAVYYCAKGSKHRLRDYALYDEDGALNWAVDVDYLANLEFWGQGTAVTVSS VL: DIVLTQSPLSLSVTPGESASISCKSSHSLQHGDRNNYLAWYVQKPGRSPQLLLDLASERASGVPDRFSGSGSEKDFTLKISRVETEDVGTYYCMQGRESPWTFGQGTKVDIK
IC50 (µg/ml) with constrains (µg/mL): 0.005

Kindly review the next binder as well.
Lookup: Reported IC50 (µg/ml) with constrains for ePGDM9 (antibody, V domains shown) VH: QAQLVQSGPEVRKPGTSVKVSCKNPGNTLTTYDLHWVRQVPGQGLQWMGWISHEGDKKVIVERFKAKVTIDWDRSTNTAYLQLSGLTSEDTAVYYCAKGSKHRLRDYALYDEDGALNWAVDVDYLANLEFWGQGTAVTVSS VL: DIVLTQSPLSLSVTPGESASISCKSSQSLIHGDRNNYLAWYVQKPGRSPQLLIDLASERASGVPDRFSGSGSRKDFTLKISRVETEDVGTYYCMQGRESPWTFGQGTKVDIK : what is it?
Found: 0.006
